Biological target: TDP-43 (Homo sapiens, UniProt Q13148 1-414)
Sequence (Q13148 whole entry): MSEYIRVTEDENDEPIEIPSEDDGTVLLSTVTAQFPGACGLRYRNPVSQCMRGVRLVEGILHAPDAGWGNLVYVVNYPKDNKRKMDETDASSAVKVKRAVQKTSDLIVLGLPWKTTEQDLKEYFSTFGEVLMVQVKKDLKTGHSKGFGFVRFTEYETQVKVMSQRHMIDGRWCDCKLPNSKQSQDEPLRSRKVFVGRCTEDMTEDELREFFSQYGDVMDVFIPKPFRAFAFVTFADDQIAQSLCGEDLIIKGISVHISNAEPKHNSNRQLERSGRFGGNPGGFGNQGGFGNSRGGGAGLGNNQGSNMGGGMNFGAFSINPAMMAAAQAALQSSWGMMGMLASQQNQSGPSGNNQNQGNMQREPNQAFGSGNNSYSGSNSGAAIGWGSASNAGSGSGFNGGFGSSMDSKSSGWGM
Test: RNA Bind-n-Seq with designed 260-mer pool; 25 mM Tris-HCl, 150 mM KCl, 3 mM MgCl2, BSA (printed 500 mg/mL), 20 units/mL SUPERase IN; pH not stated; 500 nM RNA pool, 1 h, 4 C; TDP-43 5, 50, 500 nM; high values mean tight binding
Details: protein: recombinant; tags: SBP (GST cleaved off with PreScission; pGEX-GST-SBP)
In all, about 9,900 sequences were measured (“r (bound/input frequency ratio)”: median about 0.7, highest 2% from about 6.5 on). The sample as a whole holds a higher share of the highest values than the screen did.
measurement name: binding signal

binder	result
ENSMUSG00000032194.180|Kank2|82:88;185:189 (ssRNA) RNA: GGGAGUUCUACAGUCCGACGAUCGCUUCGAUAUCCGCAUGCUAUGGCCUCAGAGCACUCCCAGAACUAGCUUAAAGUGACAGGCUUUGCUGAAAUCCAAAGGGACAAAAGAGUAGUUUUAUGUUACACACAUUGUUUUUAAUGCCCUGGAGCUCCUGCUGGUGACAGGAGAGACAGACAGGCUGCACCUUUCUCUAACUGGGGUUCCUUUCUGGCCCCAGGAUCUCACACACGUUCGUGGGGGGAUUUUGUUGUUGUUUCUUUGUUUCUUUUCUUCAUAAAGAAGAAAAAGGAAACAACUUCUCUCUUGCGGUCGCACUAGUGUGGAAUUCUCGGGUGUCAAGG	0.125 R (bound/input frequency ratio)

Continue with the next binder.
Fill in: binding signal of ENSMUSG00000028439.183|Fam219a (ssRNA) RNA: GGGAGUUCUACAGUCCGACGAUCGCUUCGAUAUCCGCAUGCUAUGUGCGUGUGCGUGUGUGUAUGUGUGUGCGUGUGUGUGUGUGUGUGUUGUACCCGAGUGUGUGUUGAGCCUAUCUGUCCAGGGAACCAGAUUGGUGUCCGAGAUGAGGAAAUGGCUGUGGCCUGGGAAAUCAGUGAGAGGCCGCUUGGGAAUGAGAAUGCAGUGGACUGAAAGCACAGCCUGGCCAUCUGGAACCUGGGUUCUGGUCCCAGCCUCGGCAUUCUCCCUGAGCUCCUAAGCAAUUCCCAGGCUUCUCUAGGGCUCUUGCGGUCGCACUAGUGUGGAAUUCUCGGGUGUCAAGG is ___ 5.72 R (bound/input frequency ratio)
